molecular target: recombinant human TFPI (tissue factor pathway inhibitor) (human, UniProt P10646 29-304); test: cell-based or functional assay
endpoint-name: A405, TF/FVIIa/FX complex assay, Ab 6.25 nM
Write the value as a bare number.

q: Return reported A405, TF/FVIIa/FX complex assay, Ab 6.25 nM; argument: clone 3203 (antibody, V domains shown) VH: EVQLVESGGGLVKPGGSLRLSCAASGFTFSSYAMSWVRQAPGKGLEWVSTITTGGSYTYYADSVEGRFTISRDNAKNSLYLQMNSLRAEDTAVYYCARQDGNFLMDYWGQGTLVTVSS VL: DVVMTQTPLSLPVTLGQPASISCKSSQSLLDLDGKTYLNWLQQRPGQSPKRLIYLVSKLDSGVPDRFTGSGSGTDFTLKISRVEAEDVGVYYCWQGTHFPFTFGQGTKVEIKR
a: 0.173

q: Next entry: clone 1023 (antibody, V domains shown, scFv on yeast at selection; human IgG4/kappa IgG as purified) VH: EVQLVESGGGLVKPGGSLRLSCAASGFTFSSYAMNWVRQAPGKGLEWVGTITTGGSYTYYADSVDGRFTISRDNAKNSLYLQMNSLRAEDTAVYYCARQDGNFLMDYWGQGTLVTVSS VL: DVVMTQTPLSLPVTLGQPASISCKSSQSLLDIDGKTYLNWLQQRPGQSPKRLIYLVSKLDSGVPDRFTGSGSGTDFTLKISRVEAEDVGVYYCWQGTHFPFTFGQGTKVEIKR
a: 0.185

q: Next entry: clone 3241 (antibody, V domains shown, scFv on yeast at selection; human IgG4/kappa IgG as purified; also called No. 3241 antibody) VH: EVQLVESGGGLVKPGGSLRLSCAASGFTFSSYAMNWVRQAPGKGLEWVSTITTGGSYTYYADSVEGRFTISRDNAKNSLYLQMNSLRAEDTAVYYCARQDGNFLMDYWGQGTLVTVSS VL: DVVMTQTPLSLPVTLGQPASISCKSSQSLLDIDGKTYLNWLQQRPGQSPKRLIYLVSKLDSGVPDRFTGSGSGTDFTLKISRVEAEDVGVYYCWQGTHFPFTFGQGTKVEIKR
a: 0.197

q: Next entry: clone A67 (antibody, V domains shown) VH: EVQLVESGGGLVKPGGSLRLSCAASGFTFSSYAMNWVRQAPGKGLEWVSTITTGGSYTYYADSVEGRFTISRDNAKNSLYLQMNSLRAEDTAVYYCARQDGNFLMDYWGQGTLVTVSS VL: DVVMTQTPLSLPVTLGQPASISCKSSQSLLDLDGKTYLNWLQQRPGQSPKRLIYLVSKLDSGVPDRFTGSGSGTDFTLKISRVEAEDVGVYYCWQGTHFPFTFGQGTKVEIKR
a: 0.195
